# maps each entry to its kon
- target_or_system: T1, monkey Trop2 protein (Sino Biological, #90893-C08H) (monkey, UniProt A0A2K5UE71 27-274)
- T1 construct: bought protein; also called monkey Trop2 protein antigen (His tag)
- T1 sequence: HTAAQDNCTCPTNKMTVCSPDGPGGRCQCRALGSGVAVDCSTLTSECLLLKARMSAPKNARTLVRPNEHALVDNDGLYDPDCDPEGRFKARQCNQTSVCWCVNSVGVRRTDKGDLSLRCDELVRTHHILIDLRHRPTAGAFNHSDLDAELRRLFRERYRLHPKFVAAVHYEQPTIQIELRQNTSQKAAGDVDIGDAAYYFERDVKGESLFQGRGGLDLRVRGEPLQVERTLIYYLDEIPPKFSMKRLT
- experimental_protocol: BLI, Octet RED96, AHC sensor
Express the result in M⁻¹ s⁻¹ but write the number alone.

Worked cases, kon given:
>  <binder>
PR001154 (antibody, human IgG1, kappa, V domains shown, fully human IgG1/kappa; also called antibody No. (17)) VH: QVQLVESGGGVVQPGRSLRLSCEASGFTFSHYGMHWVRQAPGKGLEWVAVIWYDGIKKYYIESVKGRFIISRDNSKNTLYLQMNRLRAEDTAVYYCARDGGFGELNYYGLDVWGQGTTVTVSS VL: DIQLTQSPSFLSASVGDRVTITCRASQGISSYLGWYQQKPGKAPKLLIYVASTLQSGVPSRFSGSGSGTEFTLTISSLQPEDFATYYCQQLNSYPYTFGQGTKLEIKR

>  <kon / M⁻¹ s⁻¹>
72700

$$$$
>  <binder>
PR001143 (antibody, human IgG1, kappa, V domains shown, fully human IgG1/kappa; also called antibody No. (10)) VH: QVQLVESGGGVVQPGRSLRVSCAASGFIFSTYGMHWVRQAPGKGLEWVAVIWYDGSNEDYVDSVKGRFTISRDNSKNTLYLQMNSLRGEDTAVYYCARGGYNSGWWAFDVWGQGTLVTVSS VL: DIQMTQSPSSLSASVGDRVTITCRASQGISHFLAWYQQKPGKVPKLLIYAASTLQSGVPSRFSGSGSGTDFTLTISSLQPEDVATYYCQKFNSAPLTFGGGTKVEIKR

>  <kon / M⁻¹ s⁻¹>
52100

$$$$
>  <binder>
PR001151 (antibody, human IgG1, kappa, V domains shown, fully human IgG1/kappa; also called antibody No. (14)) VH: QVQLVESGGGVVQPGRSLRLSCAASGFTFSHYGMHWVRQAPGKGLEWVAVIWYDGIKKDYVESVKGRFTISRDNSKNTLYLQMNRLRAEDTAVYYCARDGGFGELNYYGLDVWGQGTTVTVSS VL: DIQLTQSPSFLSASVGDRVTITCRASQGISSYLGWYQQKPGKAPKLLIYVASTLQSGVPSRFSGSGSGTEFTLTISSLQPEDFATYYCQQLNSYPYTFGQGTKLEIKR

>  <kon / M⁻¹ s⁻¹>
75800

$$$$
>  <binder>
PR001163 (antibody, human IgG1, kappa, V domains shown, fully human IgG1/kappa; also called antibody No. (24)) VH: QVQLVESGGDVVQPGRSLRLSCEASGFTFSHYGMHWVRQAPGKGLEWVAVVWYDGIKKYYVESVKGRFTISRDNSKNTLYLQMNRLRAEDTAVYYCARDGGFGELNYYGLDVWGQGTTVTVSS VL: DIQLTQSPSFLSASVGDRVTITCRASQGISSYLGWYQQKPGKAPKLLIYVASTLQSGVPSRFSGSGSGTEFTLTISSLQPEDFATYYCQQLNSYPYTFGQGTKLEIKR

>  <kon / M⁻¹ s⁻¹>
68400

$$$$

// moving on: another record for kon
Param item = PR001156 (antibody, human IgG1, kappa, V domains shown, fully human IgG1/kappa; also called antibody No. (19)) VH: QVQLVESGGGVVQPGRSLRLSCEGSGFTFSHYGMHWVRQAPGKGLEWVAVIWYDGIKKNYVDSLKGRFTISRDNSKNTLYLQMNSLRAEDTAVYYCARDGGFGELNYYGMDVWGQGTTVTVSS VL: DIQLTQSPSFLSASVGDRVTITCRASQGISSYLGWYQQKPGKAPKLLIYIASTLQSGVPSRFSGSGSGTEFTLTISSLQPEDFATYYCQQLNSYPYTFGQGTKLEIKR ; retrieve measured kon.
115000
